Data origin: ChEMBL document CHEMBL6109107

assay: Selectivity index, ratio of IC50 for human HaCaT cells to IC50 for human T24 cells
Format: toxicity
assay.conditions: HaCaT cells versus T24 cells, read-out: Ratio IC50
Below is a list of entries, each paired with its recorded selectivity ratio value.
No unit in the answer, please; the number alone is enough.

# compound, selectivity ratio
measured = [
    ("CC[S+]([O-])[C@@H]1[C@@H](OC(C)=O)[C@H](N=C=S)O[C@H](COC(C)=O)[C@H]1OC(C)=O (mixture of isomers)", 1.1),
    ("Nc1ccn([C@@H]2O[C@H](CO)[C@@H](O)C2(F)F)c(=O)n1 [GEMCITABINE]", 4.2),
    ("CS(=O)(=O)CCCN=C=S", 3.3),
    ("CC(=O)OC[C@H]1O[C@@H](N=C=S)[C@H](OC(C)=O)[C@@H](S(=O)(=O)c2ccccc2)[C@@H]1OC(C)=O", 1.6),
    ("CSCCCN=C=S", 3.2),
]

INPUT: Form field: reported selectivity ratio of "CC(=O)OC[C@H]1O[C@@H](N=C=S)[C@H](OC(C)=O)[C@@H](Sc2ccccc2)[C@@H]1OC(C)=O"
OUTPUT: 1.2

INPUT: Form field: reported selectivity ratio of C[S+]([O-])CCCN=C=S (racemic)
OUTPUT: 2.9

INPUT: Form field: reported selectivity ratio of "CS[C@@H]1[C@@H](OC(C)=O)[C@H](N=C=S)O[C@H](COC(C)=O)[C@H]1OC(C)=O"
OUTPUT: 1.5

INPUT: Form field: reported selectivity ratio of "CC(=O)OC[C@H]1O[C@@H](N=C=S)[C@H](OC(C)=O)[C@@H]([S@+]([O-])c2ccccc2)[C@@H]1OC(C)=O"
OUTPUT: 1.3

INPUT: Form field: reported selectivity ratio of CC(=O)OC[C@H]1O[C@@H](N=C=S)[C@H](OC(C)=O)[C@@H]([S+](C)[O-])[C@@H]1OC(C)=O (mixture of isomers)
OUTPUT: 1.1

INPUT: Form field: reported selectivity ratio of "CC(=O)OC[C@H]1O[C@@H](N=C=S)[C@H](OC(C)=O)[C@@H]([S@@+]([O-])c2ccccc2)[C@@H]1OC(C)=O"
OUTPUT: 1.1
